Provide the reported remaining target (mRNA or protein) (fraction of control) of each item.
studySystem: PRKCA; also: test concentration or dose not given here
protocolConditions: ASO
These antisense oligonucleotides have a phosphorothioate backbone; sugars and methylation of C are not fully specified.
Please reply with the value in numeric form only.

-- ask Bench note: what remaining target (mRNA or protein) (fraction of control) did GCAGAGGCTGGGGACATTGA show?
-- reply 0.81

-- ask Cool, now GTCAGCCATGGTCCCCCCCC
-- reply 0.46

-- ask Cool, now AAAACGTCAGCCATGGTCCC
-- reply 0.39

-- ask Cool, now CTGCCTCAGCGCCCCTTTGC
-- reply 0.47

-- ask Cool, now AAGAGAGAGACCCTGAACAG
-- reply 0.62

-- ask Cool, now ATTTTCAGGCCTCCATATGG
-- reply 0.82

-- ask Cool, now GGGCTGGGGAGGTGTTTGTT
-- reply 0.95

-- ask Cool, now GGATTCACTTCCACTGCGGG
-- reply 0.82

-- ask Cool, now AGTCGGTGCAGTGGCTGGAG
-- reply 0.88

-- ask Cool, now AGCCGTGGCCTTAAAATTTT
-- reply 0.84

-- ask Cool, now CCCGGGAAAACGTCAGCCAT
-- reply 0.52

-- ask Cool, now GTTCTCGCTGGTGAGTTTCA
-- reply 0.52

-- ask Cool, now TCAAATGGAGGCTGCCCGGC
-- reply 0.66

-- ask Cool, now CGCCGTGGAGTCGTTGCCCG
-- reply 0.54

-- ask Cool, now TGGAATCAGACACAAGCCGT
-- reply 0.89

-- ask Cool, now GAGACCCTGAACAGTTGATC
-- reply 0.61

-- ask Cool, now CCCCAACCACCTCTTGCTCC
-- reply 0.39

-- ask Cool, now ATGGGGTGCACAAACTGGGG
-- reply 0.94

-- ask Cool, now GATAATGTTCTTGGTTGTAA
-- reply 0.85
